# Test system: ABCB1
# experiment description: Permeability from basolateral to apical side in dog MDCK2-MDR1 cells expressing ABCB1 at 5 uM after 30 mins in absence of compound 15 by LC-MS/MS analysis
# Type: ADME, cell-based, Canis lupus familiaris, MDCK-II
# stated conditions: MDCK-MDR1, read-out: permeability
measured property: Papp B→A at 0.5 h, 5 µM (×10⁻⁶ cm/s)

>>> print(df.to_string())
                           structure_smiles        measured_property  quantity_unit  numeric_readout
0  S=C(c1ccc(C2=c3cc4c5c(c3[Se]c3c2cc2c6c3CCCN6CCC2)CCC[N+]=5CCC4)s1)N1CCCCC1.[Cl-]  Papp B→A at 0.5 h, 5 µM     ×10⁻⁶ cm/s              1.8
1  O=C(c1ccc(C2=c3cc4c5c(c3[Se]c3c2cc2c6c3CCCN6CCC2)CCC[N+]=5CCC4)s1)N1CCCCC1.[Cl-]  Papp B→A at 0.5 h, 5 µM     ×10⁻⁶ cm/s              7.8
2  C[N+]1=c2cc3c(cc2C(C)(C)CC1)=C(c1ccc(C(=O)N2CCCCC2)s1)c1cc2c4c(c1[Se]3)CCCN4CCC2.[Cl-]  Papp B→A at 0.5 h, 5 µM     ×10⁻⁶ cm/s              6.6
3  C[N+]1=c2cc3c(cc2C(C)(C)CC1)=C(c1ccc(C(=S)N2CCCCC2)s1)c1cc2c4c(c1[Se]3)CCCN4CCC2.[Cl-]  Papp B→A at 0.5 h, 5 µM     ×10⁻⁶ cm/s             0.88
4  CN1CCC(C)(C)c2cc3c(cc21)[Se]c1cc2c(cc1=C3c1ccc(C(=S)N3CCCCC3)s1)C(C)(C)CC[N+]=2C.[Cl-]  Papp B→A at 0.5 h, 5 µM     ×10⁻⁶ cm/s             0.63
5  CN1CCC(C)(C)c2cc3c(cc21)[Se]c1cc2c(cc1=C3c1ccc(C(=O)N3CCCCC3)s1)C(C)(C)CC[N+]=2C.[Cl-]  Papp B→A at 0.5 h, 5 µM     ×10⁻⁶ cm/s              6.5
